B1: CSNK1G1 (parent)
chain: GSLPWQGLKADTLKERYQKIGDTK

variants of: B1; test: protein stability index of a GFP-peptide fusion (GPS, HEK-293T) (PSI 1-6); higher = more stable; conditions: c terminus: a fixed tail appended;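 further: lentivirally expressed fusions sorted by FACS into six bins by GFP to DsRed ratio, PSI derived from sequencing read proportions per bin multiplied by bin number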
# protein stability index >= 4 gives Satisfied, anything below gives Not satisfied

The following variants have reported results that may help.
Input sequence	Label value
GSLPWQGLKADTLKERYQKIDDTK	Satisfied
GSLPWQGLKADTLKERYQKIGDTR	Not satisfied
GCLPWQGLKADTLKERYQKIGDTK	Not satisfied
GSLPWQGLKADTLKEGYQKIGDTK	Satisfied
GSLPWQGLKADTMKERYQKIGDTK	Not satisfied
GSLPWQGLKADTLKERQQKIGDTK	Satisfied
GSLPWQGLKADTLFERYQKIGDTK	Not satisfied
GSLPWQGLKADTLKERFQKIGDTK	Satisfied

Input line: Confirm if protein stability index reported for the variant NSLPWQGLKADTLKERYQKIGDTK is 4 or above.
Output line: Satisfied

Input line: Check this variant for protein stability index at or above 4: GSLPWQGLKADELKERYQKIGDTK
Output line: Satisfied

Input line: Item GSLPWQGLKAGTLKERYQKIGDTK with protein stability index of 4 or above?
Output line: Not satisfied

Input line: // inclusive: protein stability index at least 4? input: GSLPWQGLKADPLKERYQKIGDTK
Output line: Satisfied

Input line: Evaluate GSLPKQGLKADTLKERYQKIGDTK : protein stability index at minimum 4?
Output line: Satisfied

Input line: Reported protein stability index reaches at least 4 for GSLPWQGLKADTLKERYQTIGDTK ?
Output line: Satisfied
